# credit: paper PMC7504677

- target.desc: PDE10A (Homo sapiens)
- assay.explanation: luminescence PDE inhibition assay (PDElight HTS cAMP phosphodiesterase assay kit)
- Assay type: biochemical
- setup.conditions: 1 h; percentage of inhibition respective to vehicle control (DMSO); 3 µM
measurement.type: inhibition at 3 µM (%)

Record excerpt, results attached:
O=C1c2ccccc2C(=O)N1CCCc1nc2ccccc2[nH]1 [Compound 21] | 16
COc1cccc2c1C(=O)N(CCCCCc1nc3ccccc3[nH]1)C2=O [Compound 19] | 52

A. O=C1c2ccccc2C(=O)N1CCCCc1nc2ccccc2[nH]1 [Compound 22]
B. COc1cccc2c1C(=O)N(CCCN1CCC3CCCCC3C1)C2=O (centres unmarked) [Compound 8]
C. O=C1c2ccccc2C(=O)N1CCc1nc2ccccc2[nH]1 [Compound 20]
D. COc1cccc2c1C(=O)N(CCCc1ccccc1)C2=O [Compound 16]
E. O=C1c2ccccc2C(=O)N1CCCCCc1nc2ccccc2[nH]1 [Compound 23]
Query: Order these by inhibition at 3 µM, descending, and give the full ranking. Labels, requested order.
Reply: A, E, D, B, C
(A: 47%, E: 26%, D: 11%, B: 7%, C: 0%)

###

- target.desc: PDE10A (Homo sapiens, UniProt Q9Y233)
- Sequence (Q9Y233 whole entry, species assumed): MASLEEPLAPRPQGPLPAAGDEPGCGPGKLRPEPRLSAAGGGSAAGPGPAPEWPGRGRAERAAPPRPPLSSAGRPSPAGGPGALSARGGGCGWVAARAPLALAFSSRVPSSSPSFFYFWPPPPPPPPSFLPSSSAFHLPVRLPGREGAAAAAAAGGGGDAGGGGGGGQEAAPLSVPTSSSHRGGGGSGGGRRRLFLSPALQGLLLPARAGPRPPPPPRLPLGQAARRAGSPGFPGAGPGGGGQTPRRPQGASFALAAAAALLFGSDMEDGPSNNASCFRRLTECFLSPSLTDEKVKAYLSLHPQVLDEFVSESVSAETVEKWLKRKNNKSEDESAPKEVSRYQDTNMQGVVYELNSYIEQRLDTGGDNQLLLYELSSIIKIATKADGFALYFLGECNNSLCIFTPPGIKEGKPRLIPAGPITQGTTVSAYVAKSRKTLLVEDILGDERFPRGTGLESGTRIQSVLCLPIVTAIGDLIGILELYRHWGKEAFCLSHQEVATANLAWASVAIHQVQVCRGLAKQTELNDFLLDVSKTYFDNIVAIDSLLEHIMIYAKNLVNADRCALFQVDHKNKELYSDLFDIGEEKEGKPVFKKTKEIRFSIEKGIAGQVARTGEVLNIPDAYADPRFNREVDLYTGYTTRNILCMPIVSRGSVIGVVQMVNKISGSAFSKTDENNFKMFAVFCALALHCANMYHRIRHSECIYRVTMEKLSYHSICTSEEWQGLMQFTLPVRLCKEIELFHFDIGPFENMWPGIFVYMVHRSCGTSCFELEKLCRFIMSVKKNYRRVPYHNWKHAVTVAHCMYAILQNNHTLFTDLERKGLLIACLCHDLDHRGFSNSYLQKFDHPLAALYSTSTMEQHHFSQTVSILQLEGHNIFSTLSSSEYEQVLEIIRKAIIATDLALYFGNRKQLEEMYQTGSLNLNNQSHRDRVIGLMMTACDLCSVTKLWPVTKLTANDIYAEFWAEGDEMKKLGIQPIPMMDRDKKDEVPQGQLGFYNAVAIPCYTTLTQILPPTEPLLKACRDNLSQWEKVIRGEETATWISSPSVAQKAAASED
- assay.explanation: luminescence PDE inhibition assay (PDElight HTS cAMP phosphodiesterase assay kit)
- Type: biochemical
- setup.conditions: 1 h; percentage of inhibition respective to vehicle control (DMSO); 3 µM
measurement.type: inhibition at 3 µM (%)

COc1cccc2c1C(=O)N(CCN1CCC3CCCCC3C1)C2=O (stereo not shown) [Compound 5] | 0
COc1cccc2c1C(=O)N(CCc1c[nH]cn1)C2=O [Compound 14] | 0
COc1cc2c(cc1OC)CN(CCN1C(=O)c3cccc(OC)c3C1=O)CC2 [Compound 3] | 0
COc1cccc2c1C(=O)N(Cc1nc3ccccc3[nH]1)C2=O [Compound 11] | 7

1. COc1cccc2c1C(=O)N(CCc1ccccc1)C2=O [Compound 12]
2. COc1cccc2c1C(=O)N(CCN1CCc3ccccc3C1)C2=O [Compound 4]
3. COc1cccc2c1C(=O)N(CCc1nc3ccccc3[nH]1)C2=O [Compound 15]
4. COc1cccc2c1C(=O)N(CCCc1nc3ccccc3[nH]1)C2=O [Compound 17]
5. COc1cccc2c1C(=O)N(CCCN1CCc3ccccc3C1)C2=O [Compound 7]
Query: Arrange the 5 entries by inhibition at 3 µM so the values rise. Please, when replying, give the labels in the order that was requested.
Reply: 2, 1, 5, 3, 4
(2: 0%, 1: 5%, 5: 18%, 3: 40%, 4: 73%)

###

- target.desc: 5-HT7 receptor (Homo sapiens)
- Sequence (P34969 whole entry): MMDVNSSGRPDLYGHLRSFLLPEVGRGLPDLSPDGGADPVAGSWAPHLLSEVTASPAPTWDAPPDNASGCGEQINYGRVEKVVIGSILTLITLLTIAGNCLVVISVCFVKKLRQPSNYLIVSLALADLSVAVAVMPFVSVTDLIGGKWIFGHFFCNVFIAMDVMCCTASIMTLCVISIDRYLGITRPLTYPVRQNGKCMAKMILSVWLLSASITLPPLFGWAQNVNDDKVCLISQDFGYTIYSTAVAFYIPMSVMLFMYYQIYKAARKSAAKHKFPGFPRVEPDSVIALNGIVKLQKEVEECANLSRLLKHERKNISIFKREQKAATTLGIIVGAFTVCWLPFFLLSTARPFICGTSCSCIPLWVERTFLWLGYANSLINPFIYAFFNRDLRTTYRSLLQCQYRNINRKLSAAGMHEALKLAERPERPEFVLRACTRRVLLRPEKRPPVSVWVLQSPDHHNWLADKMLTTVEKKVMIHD
- assay.explanation: radioligand binding assay, [3H]-LSD
- setup.conditions: read-out: 5-HT7 1 µM ± SEM (% of control specific binding)
measurement.type: inhibition at 1 µM (%)

COc1cc2c(cc1OC)CN(CCN1C(=O)c3cccc(OC)c3C1=O)CC2 | 0
O=C1c2ccccc2C(=O)N1CCc1nc2ccccc2[nH]1 | 36
COc1cccc2c1C(=O)N(CCCCCc1nc3ccccc3[nH]1)C2=O | 6
COc1cccc2c1C(=O)N(CCc1nc3ccccc3[nH]1)C2=O | 0
COc1cccc2c1C(=O)N(CCCc1ccccc1)C2=O | 14

a. COc1cccc2c1C(=O)N(Cc1ccccc1)C2=O
b. O=C1c2ccccc2C(=O)N1CCCCCc1nc2ccccc2[nH]1
c. COc1cccc2c1C(=O)N(CCCc1nc3ccccc3[nH]1)C2=O
d. O=C1c2ccccc2C(=O)N1CCCCc1nc2ccccc2[nH]1
e. COc1cccc2c1C(=O)N(CCCN1CCc3ccccc3C1)C2=O
Query: Descending sort on inhibition at 1 µM required. Give your ranking as a list of the labels in the requested order.
Reply: e, b, d, c, a

P. COc1cccc2c1C(=O)N(CCc1ccccn1)C2=O
Q. O=C1c2ccccc2C(=O)N1CCCc1nc2ccccc2[nH]1
Query: Hi team, can someone confirm which has the larger inhibition at 1 µM: P or Q ? Thanks. Identify your pick by its label.
Reply: Q

###

- target.desc: UniProt:Q9Y233
- assay.explanation: luminescence PDE inhibition assay (PDElight HTS cAMP phosphodiesterase assay kit)
- Type: biochemical
- setup.conditions: 1 h; percentage of inhibition respective to vehicle control (DMSO); 10 µM
measurement.type: inhibition at 10 µM (%)

I. COc1cccc2c1C(=O)N(Cc1ccccc1)C2=O [Compound 9]
II. COc1cccc2c1C(=O)N(CCCc1nc3ccccc3[nH]1)C2=O [Compound 17]
III. COc1cccc2c1C(=O)N(Cc1nc3ccccc3[nH]1)C2=O [Compound 11]
Query: Sort key = inhibition at 10 µM. Sort direction = ascending. Apply to the list above. Response format: the labels, sorted as the prompt asks.
Reply: I, III, II

A. COc1cccc2c1C(=O)N(Cc1ccccn1)C2=O [Compound 10]
B. O=C1c2ccccc2C(=O)N1CCc1nc2ccccc2[nH]1 [Compound 20]
Query: Looking at A and B , which one comes out lower in inhibition at 10 µM terms? Kindly state the label of the option you pick.
Reply: A
(A: 0%, B: 1%)

P. COc1cc2c(cc1OC)CN(CCCN1C(=O)c3cccc(OC)c3C1=O)CC2 [Compound 6]
Q. O=C1c2ccccc2C(=O)N1CCCCCc1nc2ccccc2[nH]1 [Compound 23]
Query: Which gives the smaller inhibition at 10 µM number: P or Q ? Refer to your chosen item by its label in the answer.
Reply: P

1. COc1cccc2c1C(=O)N(CCN1CCC3CCCCC3C1)C2=O (stereo not drawn) [Compound 5]
2. O=C1c2ccccc2C(=O)N1CCCc1nc2ccccc2[nH]1 [Compound 21]
Query: Name the one with the greater inhibition at 10 µM value, either 1 or 2 as given. Returns: label corresponding to the selected item.
Reply: 2
(2: 45%, 1: 0%)

###

- target.desc: UniProtKB P08908
- Sequence (P08908 whole entry): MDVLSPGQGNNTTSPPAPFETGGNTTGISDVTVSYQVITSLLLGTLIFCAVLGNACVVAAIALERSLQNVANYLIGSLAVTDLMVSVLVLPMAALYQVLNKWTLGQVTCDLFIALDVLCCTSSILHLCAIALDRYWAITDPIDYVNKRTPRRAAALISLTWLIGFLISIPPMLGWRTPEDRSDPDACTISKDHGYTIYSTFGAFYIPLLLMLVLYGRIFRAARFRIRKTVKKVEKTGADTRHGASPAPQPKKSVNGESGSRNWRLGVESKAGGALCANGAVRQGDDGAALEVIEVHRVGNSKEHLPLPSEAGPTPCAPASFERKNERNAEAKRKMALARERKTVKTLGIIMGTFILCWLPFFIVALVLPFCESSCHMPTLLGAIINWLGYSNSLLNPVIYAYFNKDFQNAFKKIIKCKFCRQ
- assay.explanation: radioligand binding assay, [3H]8-OH-DPAT
- setup.conditions: read-out: 5-HT1A 1 µM ± SEM (% of control specific binding)
measurement.type: inhibition at 1 µM (%)

O=C1c2ccccc2C(=O)N1CCc1nc2ccccc2[nH]1 | 26
COc1cccc2c1C(=O)N(CCCN1CCc3ccccc3C1)C2=O | 33
COc1cccc2c1C(=O)N(CCCCCc1nc3ccccc3[nH]1)C2=O | 28

P. COc1cccc2c1C(=O)N(Cc1ccccc1)C2=O
Q. COc1cccc2c1C(=O)N(CCc1ccccc1)C2=O
R. O=C1c2ccccc2C(=O)N1CCCc1nc2ccccc2[nH]1
S. COc1cccc2c1C(=O)N(Cc1nc3ccccc3[nH]1)C2=O
T. COc1cccc2c1C(=O)N(CCc1ccccn1)C2=O
Query: Please give the order of these compounds when sorted by inhibition at 1 µM, largest value leading. Answer with the labels in sequence, matching the requested order.
Reply: T, S, R, Q, P
(T: 59%, S: 39%, R: 27%, Q: 13%, P: 6%)

a. O=C1c2ccccc2C(=O)N1CCCCc1nc2ccccc2[nH]1
b. COc1cc2c(cc1OC)CN(CCCN1C(=O)c3cccc(OC)c3C1=O)CC2
c. COc1cccc2c1C(=O)N(Cc1ccccn1)C2=O
d. O=C1c2ccccc2C(=O)N1CCCCCc1nc2ccccc2[nH]1
Query: Rank descending by inhibition at 1 µM. // respond by listing labels in the order requested
Reply: d, b, a, c

P. COc1cccc2c1C(=O)N(CCCc1nc3ccccc3[nH]1)C2=O
Q. COc1cccc2c1C(=O)N(CCCN1CCC3CCCCC3C1)C2=O (stereo not drawn)
R. COc1cccc2c1C(=O)N(CCc1nc3ccccc3[nH]1)C2=O
Query: Number of compounds to sort: 3. Sort criterion: inhibition at 1 µM, ascending. Reply format: the labels, ordered as requested.
Reply: P, Q, R
(P: 16%, Q: 28%, R: 44%)

A. COc1cccc2c1C(=O)N(CCCc1ccccc1)C2=O
B. COc1cccc2c1C(=O)N(CCN1CCc3ccccc3C1)C2=O
Query: Which numeric inhibition at 1 µM is bigger, that of A or that of B ? Kindly state the label of the option you pick.
Reply: A

###

Catalogue of molecules with associated melting point

Query: Which melting point is listed for COc1cccc2c1C(=O)N(CCCN1CCc3ccccc3C1)C2=O ?
Reply: 92 to 93 °C

Query: Now consider COc1cccc2c1C(=O)N(CCCCCc1nc3ccccc3[nH]1)C2=O and answer again.
Reply: 108 to 109 °C

Query: Input COc1cccc2c1C(=O)N(CCCc1nc3ccccc3[nH]1)C2=O
Reply: 217 to 218 °C

Query: Next entry: COc1cccc2c1C(=O)N(CCCc1ccccc1)C2=O
Reply: 94 to 95 °C

Query: What do you have for COc1cccc2c1C(=O)N(CCc1c[nH]cn1)C2=O ?
Reply: 227 to 228 °C

###

- target.desc: PDE10A (Homo sapiens, UniProt Q9Y233)
- assay.explanation: luminescence PDE inhibition assay (PDElight HTS cAMP phosphodiesterase assay kit)
- Format: biochemical
- setup.conditions: 1 h; percentage of inhibition respective to vehicle control (DMSO); 10 µM
- Procedure: Test and reference compounds were dissolved in dimethyl sulfoxide (DMSO) at a concentration of 1 mM and further diluted in assay buffer in order to obtain the final concentration of compounds: 10 µM and 3 µM, respectively. All reactions were carried out at 37 °C in white, half-area 96-well plates (Perkin Elmer, Waltham, MA, USA). The inhibition of PDE 10A enzyme was measured using the PDElight HTS cAMP phosphodiesterase assay kit (Lonza) according to the manufacturer’s recommendations. […]
measurement.type: inhibition at 10 µM (%)

COc1cccc2c1C(=O)N(CCCN1CCC3CCCCC3C1)C2=O (stereo not drawn) | 7

A. COc1cccc2c1C(=O)N(CCCCCc1nc3ccccc3[nH]1)C2=O
B. COc1cccc2c1C(=O)N(CCc1ccccc1)C2=O
Query: Hello, I am sorting some records. Could you say if A or B has the smaller inhibition at 10 µM value? # reply format: chosen label
Reply: B
